// read-out pIC50, gathered for Cytochrome P450 2D6 (Homo sapiens, UniProt P10635) from published studies
pIC50: −log10 of the molar value.

>  <compound>
O=C(O)CNC(=O)Nc1cnc2c(c1)OCCN2C(=O)Nc1ccccc1

>  <pIC50>
< 4.70

$$$$
>  <compound>
O=C(c1ccc(NC2CCC(F)(F)CC2)nc1Cl)c1c[nH]c2ncnc(NC3CC3)c12

>  <pIC50>
< 5.00

$$$$
>  <compound>
Clc1ccc(Nc2ncc(Cc3c[nH]c4ncc(Cl)cc34)cn2)cc1

>  <pIC50>
< 5.00

$$$$
>  <compound>
O=C(O)[C@@H]1Cc2c(ccc(Cl)c2OCc2ccccc2)CN1C(=O)[C@@H](OC1CCCC1)c1ccccc1

>  <pIC50>
< 4.30

$$$$
>  <compound>
CC(c1cncn1[C@H](C)c1ccc(F)cc1)N1CCN(S(=O)(=O)c2cnc(N3CCN4C[C@H](O)C[C@H]4C3)s2)CC1 (stereo partly drawn)

>  <pIC50>
< 5.00

$$$$
>  <compound>
C[C@H]1SC(N)=N[C@](C)(c2cc(NC(=O)c3ncc(OCC(F)(F)F)cn3)ccc2F)[C@H]1F

>  <pIC50>
≤ 4.70

$$$$
>  <compound>
CCn1cc(Nc2ccc(C(=O)c3c[nH]c4ncnc(C5CC5)c34)c(F)n2)cn1

>  <pIC50>
< 5.00

$$$$
>  <compound>
Fc1cc(Cc2c[nH]c3ncnc(NC4CC4)c23)cnc1NC1CCC(F)(F)CC1

>  <pIC50>
< 5.00

$$$$
>  <compound>
CCc1nnc2n1CCN(C(=O)c1cncn1[C@@H](C)c1ccccc1-c1ccc(F)cc1)C2

>  <pIC50>
< 5.00

$$$$
>  <compound>
COc1cc(N2CCc3nc(NC(=O)NCCC(=O)N4CCC[C@H]4C(=O)O)sc3C2)nc(OC)n1

>  <pIC50>
< 4.70

$$$$

In: Tell me the measured pIC50 of CCOc1ncnc2[nH]cc(C(=O)c3ccc(Nc4ccc(OC)nc4)nc3F)c12 , please.
Out: < 5.00

In: Tell me the measured pIC50 of COc1ccc(Nc2ccc(C(=O)c3c[nH]c4ncnc(NC5CCC(F)(F)CC5)c34)c(F)n2)cn1 , please.
Out: < 5.00

In: Tell me the measured pIC50 of C[C@H](c1ccc(F)cc1)n1cncc1CN1CCN(S(=O)(=O)c2cnc(N3CC(=O)N4C[C@H](O)C[C@H]4C3)s2)CC1 , please.
Out: < 5.00

In: Tell me the measured pIC50 of COc1ncnc2[nH]cc(Cc3ccc(Nc4ccc(C)nc4)nc3F)c12 , please.
Out: < 5.00

In: Tell me the measured pIC50 of Cc1nc(C)c(-c2csc(NC(=O)[C@@H]3CCC(=O)N3)n2)s1 , please.
Out: < 4.70

In: Tell me the measured pIC50 of C[C@@H](c1ccccc1-c1ccc(F)cc1)n1cncc1C(=O)N1CCC[C@@H]2OCCN[C@H]2C1 , please.
Out: < 5.00

In: Tell me the measured pIC50 of C[C@H]1[C@@H](C(F)(F)F)OC(N)=N[C@]1(C)c1cc(NC(=O)c2ccc(C#N)cn2)ccc1F , please.
Out: ≤ 4.70

In: Tell me the measured pIC50 of Cc1nc[nH]c1CC1=C(O)CC(CCc2ccc(C(C)(C)C#N)c(F)c2)(C2CCCC2)OC1=O (stereo not drawn) , please.
Out: 6.14
